Target: rat DAT (Rattus norvegicus, UniProt P23977)
Sequence (P23977 whole entry): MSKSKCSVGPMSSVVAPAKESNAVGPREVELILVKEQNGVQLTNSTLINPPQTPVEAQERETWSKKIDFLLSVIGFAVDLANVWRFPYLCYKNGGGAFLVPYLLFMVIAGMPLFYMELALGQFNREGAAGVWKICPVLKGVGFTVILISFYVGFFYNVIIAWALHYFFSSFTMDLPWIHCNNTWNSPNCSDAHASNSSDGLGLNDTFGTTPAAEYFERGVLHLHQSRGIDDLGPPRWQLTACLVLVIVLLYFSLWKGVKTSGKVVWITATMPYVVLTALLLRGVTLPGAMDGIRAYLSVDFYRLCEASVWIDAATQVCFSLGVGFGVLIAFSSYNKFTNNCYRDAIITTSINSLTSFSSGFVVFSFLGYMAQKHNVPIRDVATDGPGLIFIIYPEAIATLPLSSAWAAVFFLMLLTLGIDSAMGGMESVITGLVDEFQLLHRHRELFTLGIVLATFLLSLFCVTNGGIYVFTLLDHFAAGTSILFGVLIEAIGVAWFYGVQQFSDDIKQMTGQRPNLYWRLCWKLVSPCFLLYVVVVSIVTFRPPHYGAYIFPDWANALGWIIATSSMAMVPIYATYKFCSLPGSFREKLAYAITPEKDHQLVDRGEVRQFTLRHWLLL
Assay: Rat DAT binding, [3H]Win 35,428, striatal membranes
Settings: read-out: DAT, IC50; Table 1
// IC50 lookup, one value per entry
Expressed in nM, but write only the number.

>  <molecule>
CC(OCCC1CCN(Cc2ccc(F)cc2)CC1)c1ccccc1 (centres unmarked)

>  <measureUnit>
nM

>  <observedValue>
751

$$$$
>  <molecule>
CN(CCC1CCN(Cc2ccccc2)CC1)C(c1ccccc1)c1ccccc1

>  <measureUnit>
nM

>  <observedValue>
213

$$$$
>  <molecule>
Fc1ccc(CN2CCC(CNCC(c3ccccc3)c3ccccc3)CC2)cc1

>  <measureUnit>
nM

>  <observedValue>
19.7

$$$$
>  <molecule>
Fc1ccc(CN2CCC(CNOC(c3ccccc3)c3ccccc3)CC2)cc1

>  <measureUnit>
nM

>  <observedValue>
34.4

$$$$

We now examine a further molecule.
Summary for this molecule, `Fc1cccc(CN2CCC(CCOC(c3ccccc3)c3ccccc3)CC2)c1` : IC50 is 23.4

---

Biological target: Norepinephrine (NET) Transporter (Rattus norvegicus, UniProt Q63380)
Construct: and norepinephrine Transporters in Rat Striatum; from tissue
Sequence (Q63380 1-617): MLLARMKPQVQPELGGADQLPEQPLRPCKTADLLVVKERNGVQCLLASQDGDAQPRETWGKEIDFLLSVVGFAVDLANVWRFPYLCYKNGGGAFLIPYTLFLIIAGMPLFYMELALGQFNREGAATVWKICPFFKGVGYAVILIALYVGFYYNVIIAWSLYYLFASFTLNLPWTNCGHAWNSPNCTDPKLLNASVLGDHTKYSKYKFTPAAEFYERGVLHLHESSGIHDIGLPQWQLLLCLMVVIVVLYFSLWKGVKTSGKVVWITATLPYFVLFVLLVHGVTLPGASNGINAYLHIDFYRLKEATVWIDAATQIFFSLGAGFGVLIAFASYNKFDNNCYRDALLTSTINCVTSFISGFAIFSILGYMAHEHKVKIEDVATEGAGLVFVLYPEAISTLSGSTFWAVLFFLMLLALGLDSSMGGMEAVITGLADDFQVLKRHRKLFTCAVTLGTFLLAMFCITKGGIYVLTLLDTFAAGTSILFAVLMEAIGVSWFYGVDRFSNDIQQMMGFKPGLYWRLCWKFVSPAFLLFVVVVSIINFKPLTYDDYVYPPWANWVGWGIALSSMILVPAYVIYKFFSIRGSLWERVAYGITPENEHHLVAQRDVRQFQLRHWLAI
Test: NET binding, [3H]nisoxetine
Conditions: Table 1; read-out: NET, IC50
observationType: pIC50
Field pIC50 (float): negative decimal logarithm of the concentration in molar.

>  <moleculeSmiles>
Ic1ccc(CN2CCC(CCOC(c3ccccc3)c3ccccc3)CC2)cc1

>  <pIC50>
5.94

$$$$

Looking up `Fc1ccc(CN2CCC(CNCC(c3ccccc3)c3ccccc3)CC2)cc1` , I see its pIC50 listed as 5.95

---

Counter-ions that a name gives are not always drawn.
Reported melting point values follow for various molecules

See these solved cases before continuing.
>  <molecule>
Fc1ccc(C(NCC2CCN(CCc3ccccc3)CC2)c2ccc(F)cc2)cc1 (as salt: HCl)

>  <melting point>
214 to 215 °C

$$$$
>  <molecule>
Fc1cccc(CN2CCC(CCOC(c3ccccc3)c3ccccc3)CC2)c1 (as salt: oxalate)

>  <melting point>
150 to 151 °C

$$$$
>  <molecule>
O=C1CN(Cc2ccc(F)cc2)CCC1CCOC(c1ccccc1)c1ccccc1 (racemic) (as salt: oxalate) (hydrate or solvate)

>  <melting point>
104 to 109 °C

$$$$
>  <molecule>
Ic1ccc(CN2CCC(CCOC(c3ccccc3)c3ccccc3)CC2)cc1 (as salt: oxalate)

>  <melting point>
160 to 161 °C

$$$$
>  <molecule>
OC1CN(Cc2ccc(F)cc2)CCC1CCOC(c1ccccc1)c1ccccc1 (racemic) (as salt: oxalate)

>  <melting point>
143 to 150 °C

$$$$

Lab note: measured melting point of CC(NCCC1CCN(Cc2ccc(F)cc2)CC1)c1ccccc1 (stereo not shown) (as salt: oxalate) was 172 to 173 °C

// sample N#Cc1ccc(CN2CCC(CCOC(c3ccccc3)c3ccccc3)CC2)cc1 (as salt: oxalate) , its melting point was 120 to 121 °C

---

Molecular target: rat DAT (Rattus norvegicus, UniProt P23977)
Experiment: Rat DAT binding, [3H]Win 35,428, striatal membranes
Catalogue of IC50 values
Answer with a number only, understood to be in nM.

// worked examples, IC50 included
>  <compound>
CCC(=O)OC1CN(Cc2ccc(F)cc2)CCC1CCOC(c1ccccc1)c1ccccc1 (racemic) [Example 17]

>  <observationType>
IC50

>  <observedValue>
583

$$$$
>  <compound>
O=C1CN(Cc2ccc(F)cc2)CCC1CCOC(c1ccccc1)c1ccccc1 (racemic) [Example 18]

>  <observationType>
IC50

>  <observedValue>
99

$$$$
>  <compound>
Fc1ccc(CNC2CCC(C(c3ccccc3)c3ccccc3)NC2)cc1 (racemic) [(±)-7a]

>  <observationType>
IC50

>  <observedValue>
30

$$$$
>  <compound>
OC1CN(Cc2ccc(F)cc2)CCC1CCOC(c1ccccc1)c1ccccc1 (racemic) [Example 16]

>  <observationType>
IC50

>  <observedValue>
5.96

$$$$

response.value for Fc1ccc(CN[C@H]2CC[C@H](C(c3ccccc3)c3ccccc3)NC2)cc1 (racemic) [(±)-7b] (field: IC50) = 212

---

Catalogue of compounds with associated Ki
Target: DAT (Rattus norvegicus, UniProt P23977)
Construct: from tissue; host or cells: rat striatum
Experiment: Uptake of [3H]DA by DAT, rat striatum
Assay type: biochemical
Details: Ki (DAT), inhibition of DA uptake, [3H]DA uptake, rat striatum
Return type: number; implicit unit nM.

See these solved cases before continuing.
>  <compound>
OC(CN1CCN2CC1CCC2C(c1ccccc1)c1ccccc1)c1ccc(F)cc1 (stereo not drawn)

>  <observedValue>
66.5

$$$$
>  <compound>
OC(CCN1CCN2CC1CCC2C(c1ccccc1)c1ccccc1)c1ccc(F)cc1 (single isomer, unassigned) [Example 11a]

>  <observedValue>
41.8

$$$$

Per the reported DAT (Rattus norvegicus, UniProt P23977) data, OC(CCN1CCN2CC1CCC2C(c1ccccc1)c1ccccc1)c1ccc(F)cc1 (single isomer, unassigned) [Example 11b] has Ki of 8.63

---

Target: DAT (Rattus norvegicus, UniProt P23977)
Construct: from tissue; host or cells: rat striatum
Test: Uptake of [3H]DA by DAT, rat striatum
Type: biochemical
Details: [3H]DA uptake, rat striatum; read-out: Ki (DAT), inhibition of DA uptake
observationType: Ki (nM)
Numeric answer only, unit nM assumed.

Sample records with Ki:
>  <compound>
O[C@H](CN[C@H]1CC[C@@H](C(c2ccccc2)c2ccccc2)NC1)Cc1ccccc1 [Example 4d]

>  <Ki (nM)>
25.3

$$$$
>  <compound>
O[C@@H](CN[C@H]1CC[C@@H](C(c2ccccc2)c2ccccc2)NC1)c1ccc(F)cc1 [Example 4a]

>  <Ki (nM)>
236

$$$$
>  <compound>
O[C@H](CN[C@H]1CC[C@@H](C(c2ccccc2)c2ccccc2)NC1)c1ccc(F)cc1 [Example 4b]

>  <Ki (nM)>
152

$$$$

Then there is this compound:
Entry O[C@@H](CN[C@H]1CC[C@@H](C(c2ccccc2)c2ccccc2)NC1)Cc1ccccc1 [Example 4c] ; Ki = 25

---

Molecular target: rat DAT (Rattus norvegicus)
Assay: Rat DAT binding, [3H]Win 35,428, striatal membranes
Settings: read-out: IC50 for the dopamine transporter
observationType: IC50 (nM)
Value expressed in nM; do not type the unit.

Looking up `N#Cc1ccc(CN2CCC(CCOC(c3ccccc3)c3ccccc3)CC2)cc1` , I found its IC50 recorded as 3.7

---

Biological target: Norepinephrine (NET) Transporter (Rattus norvegicus, UniProt Q63380)
Construct: and norepinephrine Transporters in Rat Striatum; from tissue
Assay: NET binding, [3H]nisoxetine
Conditions: Table 5, rat striatum; read-out: NET, IC50, nM [3H]nisoxetine
The reader will find reported IC50 values listed item by item below.
Numeric only. Scale: nM

>  <compound>
OC1CN(Cc2ccc(F)cc2)CCC1CCOC(c1ccccc1)c1ccccc1 (racemic) [Example 16]

>  <measureUnit>
nM

>  <IC50>
637

$$$$

Field: next compound
Reported IC50 ( O=C1CN(Cc2ccc(F)cc2)CCC1CCOC(c1ccccc1)c1ccccc1 (racemic) [Example 18] ) = 6300

---

Target: dopamine transporter (DAT) (Rattus norvegicus, UniProt P23977)
Assay: biochemical
observationType: IC50
In your response, the unit should come after the numeric value.

>  <molecule>
Fc1ccc(CN2CCC(CCNC(c3ccccc3)c3ccccc3)CC2)cc1F

>  <observedValue>
0.0107 µM

$$$$
>  <molecule>
Fc1ccc(CN2CCC(CCOC(c3ccccc3)c3ccccc3)CC2)cc1F

>  <observedValue>
0.012 µM

$$$$
>  <molecule>
c1ccc(CN2CCC(CCNC(c3ccccc3)c3ccccc3)CC2)cc1

>  <observedValue>
0.0206 µM

$$$$
>  <molecule>
Fc1ccc(CN2CCC(CNOC(c3ccccc3)c3ccccc3)CC2)cc1

>  <observedValue>
0.0166 µM

$$$$
>  <molecule>
Fc1ccc(CNC2CCC(C(c3ccccc3)c3ccccc3)NC2)cc1 (racemic) [(±)-7a]

>  <observedValue>
0.0289 µM

$$$$

Lab note: measured IC50 of Fc1ccc(CN[C@H]2CC[C@H](C(c3ccccc3)c3ccccc3)NC2)cc1 (racemic) [(±)-7b] was 0.106 µM

Recorded result, `CS(=O)(=O)Nc1ccc(CN2CCC(CCOC(c3ccccc3)c3ccccc3)CC2)cc1` , IC50: 0.0097 µM

For record `N#Cc1ccc(CN2CCC(CCOC(c3ccccc3)c3ccccc3)CC2)cc1` the listed IC50 is 0.00458 µM

---

Biological target: rat SERT (Rattus norvegicus)
Construct: from tissue; host or cells: rat striatum (membranes)
Sequence (P31652 whole entry): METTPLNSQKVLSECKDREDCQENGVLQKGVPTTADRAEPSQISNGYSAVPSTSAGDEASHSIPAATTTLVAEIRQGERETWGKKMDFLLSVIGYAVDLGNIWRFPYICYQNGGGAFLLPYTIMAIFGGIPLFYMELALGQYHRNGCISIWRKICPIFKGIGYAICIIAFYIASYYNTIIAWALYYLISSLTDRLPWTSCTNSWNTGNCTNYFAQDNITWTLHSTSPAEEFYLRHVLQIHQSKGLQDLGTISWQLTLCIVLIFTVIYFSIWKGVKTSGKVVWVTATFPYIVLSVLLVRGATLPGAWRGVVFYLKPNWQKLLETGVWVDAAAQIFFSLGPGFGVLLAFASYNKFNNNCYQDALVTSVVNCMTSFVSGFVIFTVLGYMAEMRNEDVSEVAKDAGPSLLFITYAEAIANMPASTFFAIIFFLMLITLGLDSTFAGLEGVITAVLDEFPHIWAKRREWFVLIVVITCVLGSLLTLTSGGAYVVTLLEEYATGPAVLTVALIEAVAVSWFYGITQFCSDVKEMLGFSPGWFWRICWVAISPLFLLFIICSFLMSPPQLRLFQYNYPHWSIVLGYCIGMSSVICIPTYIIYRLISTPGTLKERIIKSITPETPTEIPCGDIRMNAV
Assay: Rat SERT binding, [3H]citalopram, striatal membranes
Conditions: Table 5, rat striatum; read-out: SERT, IC50, nM [3H]citalopram
observationType: IC50 (nM)
The response must be a number in nM with no trailing unit.

For this compound ( CCC(=O)OC1CN(Cc2ccc(F)cc2)CCC1CCOC(c1ccccc1)c1ccccc1 (racemic) ), measured IC50 is 178
